- measurement-description: In vivo rat cassette PK
- run-conditions: rat, in vivo, intravenous, 0.25 mg/kg
quantity-name: half-life (min)

[
  {
    "compound": "CCCNc1nc2ccccc2n1Cc1ccc(Cl)cc1 [16 f]",
    "quantity-name": "half-life",
    "readout-units": "min",
    "measurement": 43.3
  },
  {
    "compound": "N#Cc1cc(Cn2c(N3CCCC3)nc3ccccc32)ccc1F [9 o]",
    "quantity-name": "half-life",
    "readout-units": "min",
    "measurement": 38.4
  }
]

---

- system: mouse TRPC5 (Mus musculus, UniProt Q9QX29)
- Sequence (Q9QX29 whole entry): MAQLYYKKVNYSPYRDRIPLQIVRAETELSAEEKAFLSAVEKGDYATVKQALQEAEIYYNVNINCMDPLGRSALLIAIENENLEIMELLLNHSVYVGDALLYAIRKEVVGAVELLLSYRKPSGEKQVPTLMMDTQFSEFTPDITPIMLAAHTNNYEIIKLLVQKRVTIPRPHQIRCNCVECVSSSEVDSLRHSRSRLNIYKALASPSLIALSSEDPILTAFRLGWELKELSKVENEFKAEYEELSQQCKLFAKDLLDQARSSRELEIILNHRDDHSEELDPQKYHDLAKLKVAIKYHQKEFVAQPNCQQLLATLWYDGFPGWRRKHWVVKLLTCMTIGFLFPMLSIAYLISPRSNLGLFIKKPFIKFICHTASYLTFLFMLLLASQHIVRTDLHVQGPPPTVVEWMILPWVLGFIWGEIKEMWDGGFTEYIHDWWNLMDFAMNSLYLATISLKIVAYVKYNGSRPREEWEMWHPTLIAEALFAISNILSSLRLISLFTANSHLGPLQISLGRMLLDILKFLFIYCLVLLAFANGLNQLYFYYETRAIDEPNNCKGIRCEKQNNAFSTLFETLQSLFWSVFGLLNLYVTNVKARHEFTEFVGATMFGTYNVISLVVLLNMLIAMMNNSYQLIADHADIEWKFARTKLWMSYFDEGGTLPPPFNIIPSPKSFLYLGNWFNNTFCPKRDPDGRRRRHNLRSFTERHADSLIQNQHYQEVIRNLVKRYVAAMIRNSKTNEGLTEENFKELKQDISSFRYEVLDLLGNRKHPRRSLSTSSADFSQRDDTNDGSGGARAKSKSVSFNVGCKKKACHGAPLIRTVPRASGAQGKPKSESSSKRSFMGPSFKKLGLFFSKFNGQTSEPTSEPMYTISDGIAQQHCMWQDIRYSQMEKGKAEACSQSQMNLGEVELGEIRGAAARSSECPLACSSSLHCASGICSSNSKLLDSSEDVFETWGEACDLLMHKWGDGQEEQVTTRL
- measurement-description: Syncropatch automated patch clamp, inhibition of riluzole-induced TRPC5 currents
- run-conditions: TRPC5 IC50, riluzole (30 μM)-induced TRPC5 current; Syncropatch
pIC50: −log10 of the molar value.
quantity-name: pIC50

[
  {
    "compound": "CCCNc1nc2ccccc2n1Cc1ccccc1 [7 f]",
    "measurement": 6.14
  },
  {
    "compound": "CCCNc1nc2ccccc2n1Cc1ccc(Cl)cc1 [16 f]",
    "measurement": 7.17
  },
  {
    "compound": "Cc1cc2nc(N3CCCC3)n(Cc3ccccc3)c2cc1C [14 b]",
    "measurement": 4.91
  }
]

I: C[C@@H]1CCCN1c1nc2ccccc2n1Cc1ccc(Cl)cc1 [16 e]
II: COc1ccc(Cn2c(N3CCCC3)nc3ccccc32)cc1F [9 g]
Out of I and II , name the one with the higher pIC50. Please reply using the label of the selected record.
II
